- assay_system: Aminopeptidase N (Sus scrofa)
- Sequence (P15145 whole entry): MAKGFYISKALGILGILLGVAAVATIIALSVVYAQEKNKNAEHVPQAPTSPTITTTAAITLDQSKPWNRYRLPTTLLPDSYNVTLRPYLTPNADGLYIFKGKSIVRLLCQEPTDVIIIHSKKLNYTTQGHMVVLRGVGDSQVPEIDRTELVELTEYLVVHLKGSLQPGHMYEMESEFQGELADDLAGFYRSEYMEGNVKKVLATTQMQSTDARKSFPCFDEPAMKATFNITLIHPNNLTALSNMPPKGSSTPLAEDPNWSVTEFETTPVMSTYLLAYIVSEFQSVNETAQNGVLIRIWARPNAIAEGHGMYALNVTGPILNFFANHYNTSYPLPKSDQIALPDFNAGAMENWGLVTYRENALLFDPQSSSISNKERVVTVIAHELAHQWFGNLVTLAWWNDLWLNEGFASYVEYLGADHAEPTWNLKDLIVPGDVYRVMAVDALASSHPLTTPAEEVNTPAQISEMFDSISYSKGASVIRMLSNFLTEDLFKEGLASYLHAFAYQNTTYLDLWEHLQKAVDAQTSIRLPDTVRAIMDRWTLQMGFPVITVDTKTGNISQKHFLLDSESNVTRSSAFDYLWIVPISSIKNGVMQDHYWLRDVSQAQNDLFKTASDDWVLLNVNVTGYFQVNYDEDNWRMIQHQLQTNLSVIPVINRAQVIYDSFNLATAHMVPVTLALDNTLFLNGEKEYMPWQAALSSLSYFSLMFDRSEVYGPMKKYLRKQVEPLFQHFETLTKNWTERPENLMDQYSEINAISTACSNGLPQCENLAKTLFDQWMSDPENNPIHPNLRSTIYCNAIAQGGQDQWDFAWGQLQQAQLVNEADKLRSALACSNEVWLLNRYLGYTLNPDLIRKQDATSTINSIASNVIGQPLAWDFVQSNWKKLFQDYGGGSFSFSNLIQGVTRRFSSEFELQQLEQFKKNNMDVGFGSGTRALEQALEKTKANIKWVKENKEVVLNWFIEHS
Where a SMILES comes first, the peptide text is derived from it. [ ]: non-standard residue; d: D form. The star is where a group is joined. Arg(NO2) = N=C(NCCC[C@H](N)C(=O)O)N[N+](=O)[O-]; Boc = CC(C)(C)OC(=O)*; Bz = O=C(c1ccccc1)*; NHOH = ON*
Please go through the items and note down their pIC50.
One number for each entry, as −log10 of the molar value.

Would you be so kind as to report pIC50 for each listed record?
1. NC(=N[N+](=O)[O-])NCCC[C@H](NC(=O)[C@H](Cc1ccccc1)NC(=O)[C@@H]1CCCN1)C(=O)NO (H-Pro-Phe-[Arg(NO2)]-{NHOH})
2. CC(C)C[C@H](NC(=O)c1ccc(Cl)cc1Cl)C(=O)N[C@@H](CCCNC(N)=N[N+](=O)[O-])C(=O)NO
3. N=C(NCCC[C@H](NC(=O)[C@@H]1CCCN1C(=O)[C@@H]1CCCN1)C(=O)NO)N[N+](=O)[O-] (H-Pro-Pro-[Arg(NO2)]-{NHOH})
4. CC(C)C[C@H](NC(=O)OC(C)(C)C)C(=O)N[C@@H](C)C(=O)N[C@@H](CCCNC(N)=N[N+](=O)[O-])C(=O)NO (Boc-Leu-Ala-[Arg(NO2)]-{NHOH})
5. CC(C)[C@H](NC(=O)[C@H](Cc1ccccc1)NC(=O)OC(C)(C)C)C(=O)N[C@@H](CCCNC(=N)N[N+](=O)[O-])C(=O)NO (Boc-Phe-Val-[Arg(NO2)]-{NHOH})
6. N=C(NCCC[C@H](NC(=O)[C@H](Cc1ccccc1)NC(=O)c1ccccc1)C(=O)NO)N[N+](=O)[O-] (Bz-Phe-[Arg(NO2)]-{NHOH})

*A*
[3.44, 5.14, 4.19, 4.40, 4.48, 5.38]
